Value source: paper PMC11509930

Catalogue of proteins with associated kcat
Substrate: c1ccc([C@@H]2CO2)cc1
measurement.description: purified protein
Format: biochemical, Phanerodontia chrysosporium
experimental.context: 10-80 mM SO, 37 °C, buffer pH 8.0
# number only, unit s⁻¹ dropped from output

[
  {
    "protein": "PchEHA (epoxide hydrolase) (Phanerodontia chrysosporium; E251G/Y163H) (protein, catalytic triad D105/H308/D277) MDASLFKDFKTSRGFNYHYFYSPAKGPRPTLFFLHGNPSVATDWAQIVPHFTSRGYGVLAPDMLGYGDTDKPTDPALYVSSGMCRNLVDLLDHEGLEKVIAIGHDWGCLSVSRLASYYPERVIAYAFLAASFIGPIPPIPFDAFLEYIKQQVGYELYGYWKFHSEPGLDQFVRDHLDTFLSILWPSDPAVWKTRLAPTGALKQSALEGWTAPLAPYITEEFKKHHVEVFNKNGFEAPACYYRIMTSGLQAGDDKQILPERAVPPKDAPVFFGAANKDYICIPALAYATFKKDEWKDHKITIKEYDADHWLILSHADQVSRDLEAWIEGFASGGQ",
    "value": 2350
  }
]

# ---- query protein ----
// sample PchEHA (epoxide hydrolase) (Phanerodontia chrysosporium; G14A/K291R/Y163H) (protein, catalytic triad D105/H308/D277) MDASLFKDFKTSRAFNYHYFYSPAKGPRPTLFFLHGNPSVATDWAQIVPHFTSRGYGVLAPDMLGYGDTDKPTDPALYVSSGMCRNLVDLLDHEGLEKVIAIGHDWGCLSVSRLASYYPERVIAYAFLAASFIGPIPPIPFDAFLEYIKQQVGYELYGYWKFHSEPGLDQFVRDHLDTFLSILWPSDPAVWKTRLAPTGALKQSALEGWTAPLAPYITEEFKKHHVEVFNKNGFEAPACYYRIMTSGLQAEDDKQILPERAVPPKDAPVFFGAANKDYICIPALAYATFKRDEWKDHKITIKEYDADHWLILSHADQVSRDLEAWIEGFASGGQ , its kcat was 2480
